assay: Evaluation of Caco-2 membrane permeability; assay type: in vitro ADME; conditions: human, Apical FaSSIF/HBSS pH 6.0 to Basal HBSS 4% BSA pH 7.4, 180 minutes, after 18 to 24 hours preincubation, read-out: Caco2 (Papp)
Bridge positions count the residues as written; N and C are the ends. Square brackets hold non-standard residues; d marks the D form. Peptide text beside a SMILES is read from it. * marks the point of attachment. hPhe(3-Cl-4-CF3) = N[C@@H](CCc1ccc(C(F)(F)F)c(Cl)c1)C(=O)O; NMeGly(cPent) = CN[C@H](C(=O)O)C1CCCC1; NMeCha = CN[C@@H](CC1CCCCC1)C(=O)O; NMeF = CN[C@@H](Cc1ccccc1)C(=O)O; NMeD = CN[C@@H](CC(=O)O)C(=O)O; NMeL = CN[C@@H](CC(C)C)C(=O)O; NMeA = CN[C@@H](C)C(=O)O; Piperidide = C1CCN(*)CC1; Ac5c = NC1(C(=O)O)CCCC1; Aze = O=C(O)[C@@H]1CCN1; Sar = CNCC(=O)O; tBu = CC(C)(C)*
Metric name: Papp A→B at 180 min (×10⁻⁶ cm/s)
Reply with just the number (in ×10⁻⁶ cm/s).

Molecule	Metric name	Numeric readout
CC[C@H](C)[C@@H]1NC(=O)[C@H](CC(C)C)N(C)C(=O)C[C@@H](C(=O)N2CCOCC2)N(C)C(=O)[C@H](C2CCCC2)N(C)C(=O)C2(CCCC2)NC(=O)[C@@H]2CCCN2C(=O)[C@H](CCc2ccc(C(F)(F)F)c(Cl)c2)NC(=O)CN(C)C(=O)[C@H](Cc2ccc(C(F)(F)F)cc2)N2CCCCC[C@@H](C2=O)N(C)C(=O)CN(C)C1=O	Papp A→B at 180 min	0.14

Noted for CC(C)C[C@@H]1NC(=O)[C@H](Cc2ccccc2)N(C)C(=O)[C@H](COC(C)(C)C)NC(=O)[C@H](Cc2ccccc2)N(C)C(=O)[C@H](C)N(C)C(=O)[C@H](CC(C)C)N(C)C(=O)[C@@H](C)NC(=O)C[C@@H](C(=O)N2CCCCC2)NC(=O)[C@H](Cc2ccccc2)N(C)C(=O)[C@H]([C@@H](C)O)NC(=O)[C@H](CC(C)C)N(C)C1=O [Compound 4] ([dA][NMeL][NMeA][NMeF]S(tBu)[NMeF]L[NMeL]T[NMeF]D-Piperidide; lactam N-11) : its Papp A→B at 180 min reads 1.45

Noted for CC[C@H](C)[C@@H]1NC(=O)[C@H](CC(C)C)N(C)C(=O)C[C@@H](C(=O)N2CCCCC2)N(C)C(=O)[C@H](C2CCCC2)N(C)C(=O)C2(CCCC2)NC(=O)[C@@H]2CCCN2C(=O)[C@H](CCc2ccc(C(F)(F)F)c(Cl)c2)NC(=O)CN(C)C(=O)[C@H](CC2CCCCC2)N(C)C(=O)[C@@H]2CCN2C(=O)[C@H](C)N(C)C1=O [Compound 6] ([NMeL]I[NMeA][Aze][NMeCha][Sar][hPhe(3-Cl-4-CF3)]P[Ac5c][NMeGly(cPent)][NMeD]-Piperidide; lactam N-11) : its Papp A→B at 180 min reads 0.61
